Tested on: 313798-341-R-J2-PDC spheroids, viability
Test: Anticancer human tumor 313798-341-R-J2-PDC patient-derived cervical squamous cell carcinoma cell line growth inhibition [PI3K]
Settings: second compound 3.16 µM; first compound 3.16 µM; stronger effect = lower value; spheroids with HUVEC and MSC
Sorting guide: entries reporting viability, T/C beneath 40% go in the Y pile, the rest go in the N pile.

[
  {
    "Molecule": "C[C@@H](NC(=O)c1ncnc(N)c1Cl)c1ncc(C(=O)Nc2cc(C(F)(F)F)c(Cl)cn2)s1 + CC(Nc1ncnc2nc[nH]c12)c1cc2cccc(Cl)c2c(=O)n1-c1ccccc1",
    "Experimental System": "313798-341-R-J2-PDC spheroids, viability",
    "Class Name": "N"
  },
  {
    "Molecule": "CC(C)NCC(C(=O)N1CCN(c2ncnc3c2C(C)CC3O)CC1)c1ccc(Cl)cc1 (stereo not given) + Cc1nc(NC(=O)N2CCCC2C(N)=O)sc1-c1ccnc(C(C)(C)C(F)(F)F)c1",
    "Experimental System": "313798-341-R-J2-PDC spheroids, viability",
    "Class Name": "Y"
  },
  {
    "Molecule": "CC1(C)CCC(Nc2ncc(C(F)(F)F)c(-c3c[nH]c4c(P(C)(C)=O)c(C#N)ccc34)n2)CN1 (stereo not given) + CC(Nc1ncnc2nc[nH]c12)c1cc2cccc(Cl)c2c(=O)n1-c1ccccc1",
    "Experimental System": "313798-341-R-J2-PDC spheroids, viability",
    "Class Name": "N"
  },
  {
    "Molecule": "Cn1ncc(Cl)c1-c1cc(C(=O)NC(CN)Cc2cccc(F)c2)sc1Cl (stereo not given) + CC(Nc1ncnc2nc[nH]c12)c1cc2cccc(Cl)c2c(=O)n1-c1ccccc1",
    "Experimental System": "313798-341-R-J2-PDC spheroids, viability",
    "Class Name": "Y"
  },
  {
    "Molecule": "C#Cc1c(F)ccc2cc(O)cc(-c3ncc4c(N5CC6CCC(C5)N6)nc(OCC56CCCN5CC(F)C6)nc4c3F)c12 (stereo not given) + CC(Nc1ncnc2nc[nH]c12)c1cc2cccc(Cl)c2c(=O)n1-c1ccccc1",
    "Experimental System": "313798-341-R-J2-PDC spheroids, viability",
    "Class Name": "N"
  },
  {
    "Molecule": "Cn1ncc(Cl)c1-c1cc(C(=O)NC(CN)Cc2cccc(F)c2)sc1Cl (stereo not given) + Cc1nc(NC(=O)N2CCCC2C(N)=O)sc1-c1ccnc(C(C)(C)C(F)(F)F)c1",
    "Experimental System": "313798-341-R-J2-PDC spheroids, viability",
    "Class Name": "Y"
  },
  {
    "Molecule": "CNC(=O)c1ccc(N2C(=S)N(c3ccc(C#N)c(C(F)(F)F)c3)C(=O)C2(C)C)cc1F + Cc1nc(NC(=O)N2CCCC2C(N)=O)sc1-c1ccnc(C(C)(C)C(F)(F)F)c1",
    "Experimental System": "313798-341-R-J2-PDC spheroids, viability",
    "Class Name": "N"
  },
  {
    "Molecule": "CC1(C)CCC(CN2CCN(c3ccc(C(=O)NS(=O)(=O)c4ccc(NCC5CCOCC5)c([N+](=O)[O-])c4)c(Oc4cnc5[nH]ccc5c4)c3)CC2)=C(c2ccc(Cl)cc2)C1 + CC(Nc1ncnc2nc[nH]c12)c1cc2cccc(Cl)c2c(=O)n1-c1ccccc1",
    "Experimental System": "313798-341-R-J2-PDC spheroids, viability",
    "Class Name": "N"
  }
]

----------
viability, T/C reference
Test system: 313798-341-R-J2-PDC spheroids, viability
Test: Anticancer human tumor 313798-341-R-J2-PDC cell line growth inhibition [PI3K];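 further: spheroids exposed to compounds for seven days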;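 on viability, T/C: 100% = DMSO vehicle control viability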
Details: second compound 1 µM; first compound 3 µM; stronger effect = lower value; spheroids with HUVEC and MSC
Property Label: viability, T/C (%)

[
  {
    "Compound": "Cn1cnc2c(F)c(Nc3ccc(Br)cc3Cl)c(C(=O)NOCCO)cc21 + CC(Nc1ncnc2nc[nH]c12)c1cc2cccc(Cl)c2c(=O)n1-c1ccccc1",
    "Property Label": "viability, T/C",
    "Quantitative Readout": 71.5
  },
  {
    "Compound": "Cn1cnc2c(F)c(Nc3ccc(Br)cc3Cl)c(C(=O)NOCCO)cc21 + CC(Nc1ccc2c(c1)OCCn1cc(N3C(=O)OCC3C(F)F)nc1-2)C(N)=O",
    "Property Label": "viability, T/C",
    "Quantitative Readout": 1.11
  },
  {
    "Compound": "Cn1cnc2c(F)c(Nc3ccc(Br)cc3Cl)c(C(=O)NOCCO)cc21 + COc1c(OCCCN2CCOCC2)ccc2c3n(c(=NC(=O)c4cnc(N)nc4)nc12)CCN3",
    "Property Label": "viability, T/C",
    "Quantitative Readout": 1
  },
  {
    "Compound": "Cn1cnc2c(F)c(Nc3ccc(Br)cc3Cl)c(C(=O)NOCCO)cc21 + Cc1nc(NC(=O)N2CCCC2C(N)=O)sc1-c1ccnc(C(C)(C)C(F)(F)F)c1",
    "Property Label": "viability, T/C",
    "Quantitative Readout": 48.4
  }
]

----------
IC50 reference
Test system: 313798-341-R-J2-PDC spheroids, viability
Test: Anticancer human tumor 313798-341-R-J2-PDC cell line growth inhibition [PI3K];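 further: spheroids exposed to compounds for seven days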
Conditions: curve of compound; spheroids with HUVEC and MSC
Property Label: IC50

[
  {
    "Compound": "Cn1ncc(Cl)c1-c1cc(C(=O)NC(CN)Cc2cccc(F)c2)sc1Cl (configuration not stated)",
    "Property Label": "IC50",
    "Result": "996 nM [middle of 4 runs]"
  },
  {
    "Compound": "CC(Cn1ccc(-c2ccc(C#N)c(Cl)c2)n1)NC(=O)c1cc(C(C)O)[nH]n1 (configuration not stated)",
    "Property Label": "IC50",
    "Result": "> 10 µM"
  },
  {
    "Compound": "CCN1CCN(Cc2ccc(Nc3ncc(F)c(-c4cc(F)c5nc(C)n(C(C)C)c5c4)n3)nc2)CC1",
    "Property Label": "IC50",
    "Result": "> 1 µM"
  },
  {
    "Compound": "Cn1nccc1Nc1nccc(-c2ccn(C(CO)c3ccc(Cl)c(F)c3)c(=O)c2)n1 (configuration not stated)",
    "Property Label": "IC50",
    "Result": "> 10 µM"
  },
  {
    "Compound": "CC(C)NCC(C(=O)N1CCN(c2ncnc3c2C(C)CC3O)CC1)c1ccc(Cl)cc1 (configuration not stated)",
    "Property Label": "IC50",
    "Result": "2 µM [middle of 4 runs]"
  },
  {
    "Compound": "CNC(=O)c1ccc(N2C(=S)N(c3ccc(C#N)c(C(F)(F)F)c3)C(=O)C2(C)C)cc1F",
    "Property Label": "IC50",
    "Result": "> 10 µM"
  },
  {
    "Compound": "CCCS(=O)(=O)Nc1ccc(F)c(C(=O)c2c[nH]c3ncc(-c4ccc(Cl)cc4)cc23)c1F",
    "Property Label": "IC50",
    "Result": "6.37 µM [middle of 4 runs]"
  },
  {
    "Compound": "CC(=O)c1c(C)c2cnc(Nc3ccc(N4CCNCC4)cn3)nc2n(C2CCCC2)c1=O",
    "Property Label": "IC50",
    "Result": "> 0.1 µM"
  },
  {
    "Compound": "Cn1ncnc1[C@H]1c2n[nH]c(=O)c3cc(F)cc(c23)N[C@@H]1c1ccc(F)cc1",
    "Property Label": "IC50",
    "Result": "> 0.1 µM"
  },
  {
    "Compound": "CC(C)n1nc(-c2ccc3oc(N)nc3c2)c2c(N)ncnc21",
    "Property Label": "IC50",
    "Result": "71.3 nM [middle of 4 runs]"
  },
  {
    "Compound": "C=CC(=O)N1CCN(c2nc(=O)n(-c3c(C)ccnc3C(C)C)c3nc(-c4c(O)cccc4F)c(F)cc23)C(C)C1 (configuration not stated)",
    "Property Label": "IC50",
    "Result": "> 10 µM"
  },
  {
    "Compound": "C#Cc1c(F)ccc2cc(O)cc(-c3ncc4c(N5CC6CCC(C5)N6)nc(OCC56CCCN5CC(F)C6)nc4c3F)c12 (configuration not stated)",
    "Property Label": "IC50",
    "Result": "> 10 µM"
  }
]
